Tested on: RXRa homodimer (NR concentration 180 nM)
method_description: PBM binding z-score (relative to random genomic background probes); higher = stronger binding; sequences stand for … in GC…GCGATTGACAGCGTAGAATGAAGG
Answer class 0 if PBM binding z-score is under 0.5, and class 1 if it is 0.5 or more.

Solved cases below.
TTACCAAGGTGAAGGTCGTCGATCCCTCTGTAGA
class 1
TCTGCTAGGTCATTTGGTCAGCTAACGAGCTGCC
class 1
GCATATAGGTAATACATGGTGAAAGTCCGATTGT
class 0
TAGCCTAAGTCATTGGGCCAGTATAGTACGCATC
class 0
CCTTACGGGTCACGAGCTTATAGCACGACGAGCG
class 1
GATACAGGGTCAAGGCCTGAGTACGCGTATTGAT
class 1
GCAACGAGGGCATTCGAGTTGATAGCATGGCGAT
class 1
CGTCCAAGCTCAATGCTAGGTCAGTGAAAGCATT
class 0
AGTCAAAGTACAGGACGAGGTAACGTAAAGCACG
class 1
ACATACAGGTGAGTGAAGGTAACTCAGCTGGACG
class 1

Field: next sequence
Would you say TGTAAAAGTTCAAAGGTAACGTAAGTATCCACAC shows PBM binding z-score at minimum 0.5?
class 1

###

System: PPARg:RXRa IVT, anti-PPARg (NR concentration 270 nM, RXRa partner concentration 90 nM)
method_description: PBM binding z-score (relative to random genomic background probes); higher = stronger binding; sequences stand for … in GC…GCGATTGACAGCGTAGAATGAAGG
# binning rule on PBM binding z-score: lower range: < 2; middle range: ≥ 2 and < 4; upper range: ≥ 4

Some entries whose results are on file:
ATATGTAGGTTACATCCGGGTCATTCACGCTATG
upper range
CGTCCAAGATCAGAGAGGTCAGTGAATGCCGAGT
lower range
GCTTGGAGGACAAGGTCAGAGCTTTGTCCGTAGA
lower range

Please indicate the class for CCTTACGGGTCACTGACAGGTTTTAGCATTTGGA based on its PBM binding z-score.
middle range

Now the same for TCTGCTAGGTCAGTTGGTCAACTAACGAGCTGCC
middle range

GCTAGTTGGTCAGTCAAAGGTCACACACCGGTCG , same question.
middle range

# repeat for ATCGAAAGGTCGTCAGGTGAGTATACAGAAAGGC
middle range

Also need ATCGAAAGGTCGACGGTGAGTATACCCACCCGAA , thanks.
lower range

Same lookup for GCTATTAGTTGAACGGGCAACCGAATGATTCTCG , please.
lower range

Another sequence to check: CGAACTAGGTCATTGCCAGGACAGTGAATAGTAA
upper range

Lookup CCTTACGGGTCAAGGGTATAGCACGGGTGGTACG
middle range

###

Test system: PPARa:RXRa (NR concentration 270 nM, RXRa partner concentration 90 nM)
method_description: PBM binding z-score (relative to random genomic background probes); higher = stronger binding; sequences stand for … in GC…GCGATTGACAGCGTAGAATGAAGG
Everything with PBM binding z-score lower than 3 is Criterion not met; everything else, including exactly 3, is Criterion met.

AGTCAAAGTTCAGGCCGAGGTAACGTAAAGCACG
Criterion met
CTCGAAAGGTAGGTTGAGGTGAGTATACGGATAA
Criterion not met
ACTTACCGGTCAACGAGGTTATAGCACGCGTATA
Criterion not met
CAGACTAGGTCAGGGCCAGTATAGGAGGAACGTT
Criterion not met
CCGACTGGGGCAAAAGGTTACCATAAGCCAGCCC
Criterion met
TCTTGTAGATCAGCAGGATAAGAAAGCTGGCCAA
Criterion not met

Evaluate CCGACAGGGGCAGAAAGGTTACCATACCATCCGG : PBM binding z-score at minimum 3?
Criterion not met

Try this sequence too: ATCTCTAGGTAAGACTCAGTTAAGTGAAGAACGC
Criterion not met
